Experiment: soluble on expression in E. coli; label from the status in PepcDB or PDB records

>  <chain>
MGSDKIHHHHHHMLKRLLDYNEGEEFDLVLMVKNSELRQDKRGKHYLLMQLADSSGSIRANYWQAKAEDASRFNAGTVVEASGMIEDYHNHDQIKLFSIHPVSPDDQADLSQLVATAPEKPAEMEKEIKDFVAQIDNKNWHDLVDFLLKKWSSRFFAYPAGKSNHHAYKGGLAFHTLTMLKDARGLADNYPAVNRSLLYAGCILHDMGKVLELSGPVATQYTAEGNLVGHLVLIDEQLMLAAQELKIDLASEDLLLLRHMVLSHHGRYEYGSPKLPALLEAELLHRIDDLDAAVNAITTVNCPRPSRGNSPRR

>  <soluble on expression in E. coli>
not soluble

$$$$
>  <chain>
MMSILRSQCQISLDVTLSVPNVSEGIVRLLDPQTNTEIANYPIYKILFCVRGHDGTPESDCFAFTESHYNAELFRIHVFRCEIQEAVSRILYSFATAFRRSAKQTPLSATAAPQTPDSDIFTFSVSLEIKEDDGKGYFSAVPKDKDRQCFKLRQGIDKKIVIYVQQTTNKELAIERCFGLLLSPGKDVRIVTALIRFGSMGKVQMESRMLFGELESKIPTFSSCNEEPPKDKVLFMTTAVDLVITEVQEPVRFLLETKVRVCSPNERLFWPFSKRSTTENFFLKLKQIKQRERKNNTDTLYEVVCLESLEHHHHHHLEHHHHHHLEHHHHHHLEHHHHHHLEHHHHHHLEHHHHHHLEHHHHHH

>  <soluble on expression in E. coli>
not soluble

$$$$
